Source listed as PubChem BioAssay AID1159580.

# method: chemical genetic growth profiling, strain panel (AID 1159580);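 further: tested at 20 µM; growth read once vehicle control cultures reached saturation at 30 °C; 1 = growth at the plate median or of vehicle wells; lower values mean less growth of the strain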
# setup.conditions: S. cerevisiae deletion strains, growth OD, locus YKL085W, strain MDH1, active compounds read low
The whole screen tested about 5,500 compounds, of which about 2,000 (36%) were called active. Inconclusive results (about 18%) are left out. Some of the results follow.
metric.name: normalized growth
Answer with a bare number; do not write a unit.

OCC(O)C(O)C(O)CO (centres undefined)	1.01
Cc1c(O)c(C(=O)CC(C)C)c2oc3c(C(=O)CC(C)C)c(O)c(C)c(O)c3c2c1O	1.01
C[N+](C)(C)CCCCCC[N+](C)(C)C	0.998

Give its normalized growth value. Item: CCC(C)C(=O)O[C@H]1[C@H](O)C2C(CN3CC(C)CCC3[C@@]2(C)O)C2C[C@]34O[C@]5(O)C(OC(=O)C(C)(O)C(C)O)CC[C@@]3(C)C5C(OC(C)=O)[C@@H](OC(C)=O)C4[C@@]21O (some centres undefined)
1

How about Cc1cccc(C)c1OCC(C)N (centres undefined) ?
1.04

Same again, this time with C[C@H]1CC2C([C@@H](O)C[C@@]3(C)C2CC[C@]3(O)C(=O)CO)[C@@]2(C)C=CC(=O)C=C12 (some centres undefined)
1

Try this molecule too: CC(=O)N[C@@H](CC(C)C)C(=O)O
0.972

Now the molecule CCOC(=O)C(C)(C)Oc1ccc(Cl)cc1
1.01

----------
# method: chemical genetic growth profiling, strain panel (AID 1159580);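 further: tested at 20 µM; growth read once vehicle control cultures reached saturation at 30 °C; 1 = growth at the plate median or of vehicle wells; lower values mean less growth of the strain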
# setup.conditions: S. cerevisiae deletion strains, growth OD, locus YLR262C, strain YPT6 (second series)
The whole screen tested about 5,500 compounds, of which about 2,000 (36%) were called active. Inconclusive results (about 18%) are left out. Cut-off read from the data, not from the text of the source: active = normalized growth mostly below about 0.91 (no sharp cut-off); inconclusive = no clear call, values can overlap the other calls; inactive = mostly above about 0.92. Some of the results follow.
Assign a class; possible classes are active, inactive

CC(C)c1c(C(=O)c2ccccc2)c(-c2ccccc2)c(-c2ccc(F)cc2)n1CC[C@@H](O)C[C@@H](O)CC(=O)O	inactive
CCCCCCCCNC(C)C(O)c1ccc(SC(C)C)cc1 (configuration not stated)	active
CCC(=O)O[C@H]1CCC2C3CCC4=CC(=O)CC[C@]4(C)C3CC[C@@]21C (some centres not stated)	active
COc1ccc2c(C)cc(=O)oc2c1	inactive
COc1cc2c(cc1OC)C(=O)OC2	inactive

Which result was noted for this molecule in the test: N=c1ccn2c(n1)O[C@@H]1C2O[C@H](CO)[C@H]1O (some centres not stated)
inactive

How about CC(CCc1ccccc1)NC(C)C(O)c1ccc(O)cc1 (configuration not stated) ?
inactive

Now the same for CNC(C)[C@H](O)c1ccccc1 (some centres not stated)
inactive

Param item: CC(=O)[C@H]1CCC2C3CCC4=CC(=O)CC[C@]4(C)C3CC[C@@]21C (some centres not stated)
active

Again, but for CN[C@@H](C)[C@@H](O)c1ccccc1
inactive

Same question for CC(NCCc1ccc(O)cc1)C(O)c1ccc(O)cc1 (configuration not stated) please.
inactive

Then what about the molecule CC(C(=O)O)c1ccc(-c2ccccc2)c(F)c1 (configuration not stated) ?
active

----------
# method: chemical genetic growth profiling, strain panel (AID 1159580);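 further: tested at 20 µM; growth read once vehicle control cultures reached saturation at 30 °C; 1 = growth at the plate median or of vehicle wells; lower values mean less growth of the strain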
# setup.conditions: S. cerevisiae deletion strains, growth OD, locus YLR102C, strain apc9, active compounds read low
Out of some 5,500 compounds screened, about 2,000 (36%) were called active. Another 18% or so got no clear call; they are omitted. The list shows a part of the results.
// returns FALSE unless normalized growth is strictly below 1, in which case TRUE

CC(=O)[C@H]1CCC2C3CCC4=CC(=O)CC[C@]4(C)C3CC[C@@]21C (stereo not given in full)	TRUE

Query compound follows.
Given the entry C[C@]12CCC(=O)C=C1CCC1C2CC[C@@]2(C)C1CC[C@@H]2O (stereo not given in full) , would its reported normalized growth be below 1?
FALSE
